- Target Desc: T1, KOD Pol WT (Thermococcus kodakarensis, UniProt P77933 1-406+767-851+1389-1671, internal_change)
- T1 sequence: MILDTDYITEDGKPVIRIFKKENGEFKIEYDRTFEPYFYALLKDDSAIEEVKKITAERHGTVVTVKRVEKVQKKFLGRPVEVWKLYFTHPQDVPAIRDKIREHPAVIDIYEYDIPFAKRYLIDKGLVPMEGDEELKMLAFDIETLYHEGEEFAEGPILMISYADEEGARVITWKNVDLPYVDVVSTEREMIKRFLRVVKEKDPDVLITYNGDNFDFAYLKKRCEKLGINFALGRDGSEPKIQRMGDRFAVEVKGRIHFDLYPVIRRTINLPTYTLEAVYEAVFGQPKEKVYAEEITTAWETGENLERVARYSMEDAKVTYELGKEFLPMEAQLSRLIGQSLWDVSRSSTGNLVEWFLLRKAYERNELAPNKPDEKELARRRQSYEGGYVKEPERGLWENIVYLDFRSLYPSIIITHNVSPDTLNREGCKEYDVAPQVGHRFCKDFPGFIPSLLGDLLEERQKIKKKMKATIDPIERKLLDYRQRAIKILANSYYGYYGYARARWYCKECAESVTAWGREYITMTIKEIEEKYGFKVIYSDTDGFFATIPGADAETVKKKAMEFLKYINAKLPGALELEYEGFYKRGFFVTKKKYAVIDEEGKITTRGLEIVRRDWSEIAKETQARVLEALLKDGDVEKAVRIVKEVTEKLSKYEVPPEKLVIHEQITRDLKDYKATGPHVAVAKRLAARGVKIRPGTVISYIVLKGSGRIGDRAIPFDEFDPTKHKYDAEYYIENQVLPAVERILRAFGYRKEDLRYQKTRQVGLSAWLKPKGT
- Test Name: SPR; 100 mM NaCl; SPR (Biacore T100, SA chip, steady state): 20 mM Tris-HCl pH 8.8, 10 mM (NH4)2SO4, 0.1% Triton X-100, 100 or 300 mM NaCl; temperature not stated
- Test Conditions: protein: recombinant; tags: N-terminal His; label: 5' biotin (immobilized)
Measure: Kd (nM)
Report only the number, with the unit nM understood.

*Q* Which Kd is listed for TTTTTTTTTTTTTTTTTTTTTTTTTTTTTTTTTTTTTTTT (ssDNA) [ssDNA] ?
*A* 32.8
